- measurement target: human MASP2 (Homo sapiens (Human))
- Sequence (O00187 other isoform, or with tags, fused parts or gaps): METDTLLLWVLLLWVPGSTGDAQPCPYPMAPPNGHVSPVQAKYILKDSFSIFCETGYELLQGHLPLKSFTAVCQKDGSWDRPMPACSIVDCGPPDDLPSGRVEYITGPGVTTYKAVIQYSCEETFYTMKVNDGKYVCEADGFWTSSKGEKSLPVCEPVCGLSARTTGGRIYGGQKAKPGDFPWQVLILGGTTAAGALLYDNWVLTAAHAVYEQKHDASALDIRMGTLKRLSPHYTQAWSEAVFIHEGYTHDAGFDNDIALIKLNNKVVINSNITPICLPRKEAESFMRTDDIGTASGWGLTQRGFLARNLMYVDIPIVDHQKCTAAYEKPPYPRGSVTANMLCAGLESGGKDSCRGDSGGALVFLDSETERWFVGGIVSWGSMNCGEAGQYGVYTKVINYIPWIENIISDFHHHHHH
- experimental protocol: Biochemical human MASP2 assay (FRET substrate)
- experimental parameters: Average IC50; recombinant human MASP2; read-out: human MASP2 IC50
Where a SMILES comes first, the peptide text is derived from it. Bridges are numbered along the chain shown (N, C = ends). [ ]: non-standard residue; d: D form. Oic = O=C(O)[C@@H]1C[C@@H]2CCCC[C@@H]2N1; tBuAla = CC(C)(C)C[C@H](N)C(=O)O; Pen = CC(C)(S)[C@H](N)C(=O)O; Dab = NCC[C@H](N)C(=O)O; Dap = NC[C@H](N)C(=O)O; PEG2 = NCCOCCOCCC(=O)O; Ahx = NCCCCCC(=O)O
IC50 listing for selected compounds.
Report as a plain number; the unit nM is understood.

Give the measured IC50 of CC[C@H](C)[C@@H]1NC(=O)[C@H](CCN)NC(=O)[C@H](CN)NC(=O)[C@H]([C@@H](C)CC)NC(=O)[C@H]2NC(=O)[C@H]([C@@H](C)CC)NC(=O)[C@@H]3CCCN3C(=O)[C@@H]3CCCN3C(=O)[C@H](CC(C)(C)C)NC(=O)[C@H](CO)NC(=O)[C@H](CCCNC(=N)N)NC(=O)[C@H](CO)NC(=O)[C@H](CSSC2(C)C)NC1=O [Example 73] (cyclo(CSRS[tBuAla]PPI[Pen]I[Dap][Dab]I); disulfide 1-9) .
430

Try this compound too: CC[C@H](C)[C@@H]1NC(=O)CNC(=O)CCCCCNC(=O)CC[C@@H](C(N)=O)NC(=O)[C@@H]2CCCN2C(=O)[C@H]([C@@H](C)CC)NC(=O)[C@H]2NC(=O)[C@H]([C@@H](C)CC)NC(=O)[C@@H]3C[C@@H]4CCCC[C@@H]4N3C(=O)[C@@H]3CCCN3C(=O)[C@H](CC(C)C)NC(=O)[C@H](CO)NC(=O)[C@H](CCCNC(=N)N)NC(=O)[C@H](CO)NC(=O)[C@H](CSSC2(C)C)NC1=O [Example 83] ([Ahx]GICSRSLP[Oic]I[Pen]IPE-NH2; disulfide 4-12; lactam N-15)
91

How about this compound: CC[C@H](C)[C@@H]1NC(=O)[C@H](CN)NC(=O)[C@H](CN)NC(=O)[C@@H]2CCCN2C(=O)[C@H]([C@@H](C)CC)NC(=O)[C@H]2NC(=O)[C@H]([C@@H](C)CC)NC(=O)[C@@H]3CCCN3C(=O)[C@@H]3CCCN3C(=O)[C@H](CC(C)(C)C)NC(=O)[C@H](CO)NC(=O)[C@H](CCCNC(=N)N)NC(=O)[C@H](CO)NC(=O)[C@H](CSSC2(C)C)NC1=O
760

Same again, this time with CC[C@H](C)[C@@H]1NC(=O)CNC(=O)CCOCCOCCNC(=O)[C@H](CC(=O)O)NC(=O)[C@@H]2CCCN2C(=O)[C@H]([C@@H](C)CC)NC(=O)[C@@H]2CSSC[C@H](NC1=O)C(=O)N[C@@H](CO)C(=O)N[C@@H](CCCNC(=N)N)C(=O)N[C@@H](CO)C(=O)N[C@@H](CC(C)C)C(=O)N1CCC[C@H]1C(=O)N1CCC[C@H]1C(=O)N[C@@H]([C@@H](C)CC)C(=O)N2 [Example 24] (cyclo(CIPD[PEG2]GICSRSLPPI); disulfide 1-8)
210

Next compound up: CC[C@H](C)[C@@H]1NC(=O)CNC(=O)[C@H](CC(=O)O)NC(=O)[C@@H]2CCCN2C(=O)[C@H]([C@@H](C)CC)NC(=O)[C@@H]2CSSC[C@H](NC1=O)C(=O)N[C@@H](CO)C(=O)N[C@@H](CCCNC(=N)N)C(=O)N[C@@H](CO)C(=O)N[C@@H](CC(C)C)C(=O)N1CCC[C@H]1C(=O)N1CCC[C@H]1C(=O)N[C@@H]([C@@H](C)CC)C(=O)N2 [Ref. No 7, reference compound] (cyclo(CIPDGICSRSLPPI); disulfide 1-7)
895
